# assay name: Chemical stability in water at 2 mg/ml incubated for 2 hrs by HPLC analysis
# Format: physicochemical
# protocol conditions: read-out: Stability
Field: remaining at 2 h, 2 mg/ml. Provide a value for each of the molecules that follow.

Ask | Tell me the measured remaining at 2 h, 2 mg/ml of C=C(C)[C@@H]1CCC(C)=C[C@H]1c1c(O)cc(CCCCC)cc1O [CANNABIDIOL] , please.
Reply | ≥ 74%

Ask | Tell me the measured remaining at 2 h, 2 mg/ml of O=C(O)CN1CCOCC1 , please.
Reply | ≥ 74%

---

# assay name: in vivo
# protocol conditions: Swiss, mouse, po, 75 mg/kg
# Description: Tmax in fasted Swiss mouse at 75 mg/kg, po measured for 24 hrs by LCMS/MS analysis
property: Tmax at 24 h (h)
The figure you give is taken to be in h; do not add the unit.

Ask | Tell me the measured Tmax at 24 h of C=C(C)[C@@H]1CCC(C)=C[C@H]1c1c(O)cc(CCCCC)cc1O [CANNABIDIOL] , please.
Reply | 2

---

# assay name: Prodrug conversion in human plasma assessed as drug release measured after 24 hrs by HPLC analysis
# Format: ADME, cell-free
property: Drug metabolism (%)
The figure you give is taken to be in %; do not add the unit.

Ask | Tell me the measured Drug metabolism of C=C(C)[C@@H]1CCC(C)=C[C@H]1c1c(O)cc(CCCCC)cc1OC(=O)CN1CCN(C)CC1 , please.
Reply | 59

Ask | Tell me the measured Drug metabolism of C=C(C)[C@@H]1CCC(C)=C[C@H]1c1c(O)cc(CCCCC)cc1OC(=O)CN1CCCC1 , please.
Reply | 74

Ask | Tell me the measured Drug metabolism of C=C(C)[C@@H]1CCC(C)=C[C@H]1c1c(O)cc(CCCCC)cc1OC(=O)CN1CCC(O)CC1 , please.
Reply | 73

Ask | Tell me the measured Drug metabolism of C=C(C)[C@@H]1CCC(C)=C[C@H]1c1c(O)cc(CCCCC)cc1OC(=O)CN1CCN(C2CC2)CC1 , please.
Reply | 56

Ask | Tell me the measured Drug metabolism of C=C(C)[C@@H]1CCC(C)=C[C@H]1c1c(OC(=O)CN2CCOCC2)cc(CCCCC)cc1OC(=O)CN1CCOCC1 , please.
Reply | 52

Ask | Tell me the measured Drug metabolism of C=C(C)[C@@H]1CCC(C)=C[C@H]1c1c(O)cc(CCCCC)cc1OC(=O)CN1CCN(C(C)C)CC1 , please.
Reply | 78

Ask | Tell me the measured Drug metabolism of C=C(C)[C@@H]1CCC(C)=C[C@H]1c1c(O)cc(CCCCC)cc1OC(=O)CN1CCC(c2ccccc2)CC1 , please.
Reply | 4.6

Ask | Tell me the measured Drug metabolism of C=C(C)[C@@H]1CCC(C)=C[C@H]1c1c(O)cc(CCCCC)cc1OC(=O)CN1CCOCC1 , please.
Reply | 84

Ask | Tell me the measured Drug metabolism of C=C(C)[C@@H]1CCC(C)=C[C@H]1c1c(OC(=O)CN2CCN(C3CC3)CC2)cc(CCCCC)cc1OC(=O)CN1CCN(C2CC2)CC1 , please.
Reply | 27

Ask | Tell me the measured Drug metabolism of C=C(C)[C@@H]1CCC(C)=C[C@H]1c1c(O)cc(CCCCC)cc1OC(=O)CN1CCN(c2ccccc2)CC1 , please.
Reply | 9.2
